Hi there, I'd appreciate the recorded growth for every entry that follows.
Test system: OVCAR-4 ovarian
Test protocol: NCI-60 one-dose screen, 48 h (100 = growth as untreated, 0 = no growth, -100 = all killed)
Condition notes: 10 µM unless noted
Procedure: Growth inhibition of the OVCAR-4 human tumor cell line is measured as a screen for anti-cancer activity. Cells are grown in 96 well plates and exposed to the test compound for 48 hours. Compounds are tested at a single concentration, which is 10^-5 M for most compounds. The reported endpoint is percent growth (GI% or GIPRCNT), where numbers from 0 - 100% represent growth inhibition, and numbers from -100% - 0 represent cell death. For example, a value of 40 represents 60% growth inhibition. […]
This is part of a sample that, as a whole, favours compounds with a hit. Of some 83,000 tested, about 20% had one in any assay.
Answers are plain numbers, in %.

Worked set:
- Molecule: "NS(=O)(=O)c1ccc(-n2nc(-c3ccccc3)ccc2=O)cc1"
  growth [%]: 117
- Molecule: "CCCCc1n(Cc2ccc3ccccc3c2)c2ccccc2[n+]1Cc1ccc2ccccc2c1"
  growth [%]: -90.7
- Molecule: "C#C[C@@]1(O)[C@@H](CO)O[C@@H](n2ccc3c(N)ncnc32)[C@@H]1O"
  growth [%]: 0.622
- Molecule: "C=C1C(=O)O[C@H]2[C@H]1CC/C(COC(=O)N1CCC[C@H]1C(=O)Nc1ccc(OC)c(C(N)=O)c1O)=C\\CC[C@@]1(C)O[C@@H]21"
  growth [%]: 52
- Molecule: "COc1ccc(/C=C(/C(=O)N2CCN(Cc3ccccc3)CC2)c2cc(OC)c(OC)c(OC)c2)cc1O"
  growth [%]: 90.3
- Molecule: "O=Cc1[nH]c(Sc2ccccc2)c2ccccc12"
  growth [%]: 58.3

Give one value of growth per listed molecule.
1. O=c1c2ccccc2oc2ccc(OCCCCCN3CCCCCC3)cc12
2. COc1ccc2[nH]c3nc4cnccc4cc3c2c1
3. NS(=O)(=O)c1ccc(-n2ncc(NC(=O)Nc3ccc(S(=O)(=O)Nc4nccs4)cc3)c2-c2ccccc2)cc1
4. CC(=O)Nc1c(C(=O)Nc2ccccc2)sc2nc3c(cc12)C(OC(C)=O)CCC3 (stereo unspecified)
5. O=C1NCc2ccc3c(-c4cccc(Cl)c4)c[nH]c3c21
6. CCC[S@](=O)c1ccc2nc(NC(=O)OC)[nH]c2c1
7. CCCCC1=c2c([nH]c3ccc(OC)cc23)=NC2C=CC=NC12 (stereo unspecified)
8. CC1CCN(CCCCCOc2ccc3oc4ccccc4c(=O)c3c2)CC1

1. 73.1
2. 101
3. 101
4. 108
5. 53.6
6. 104
7. 80.3
8. 77.3

For every listed record, write down its growth.
1. COc1cc2nc3c(=O)n(CCN(C)C)cnn3c(=O)c2cc1OC
2. CC(C)(C)c1nc2c(s1)c1nc(N)ncc1c1ccc(NS(=O)(=O)c3c(F)cccc3F)c(F)c12

101
60.7

# return growth for each item in the list
1. O=CN1N=C(c2ccc3c(c2)OCO3)CC1c1cccc(Nc2ccnc3cc(C(F)(F)F)ccc23)c1 (stereo unspecified)
2. COC(=O)c1ccc2c(c1)NC(=O)[C@@H]1CCCN21
3. CCOC(=O)c1c(C)nc2c(c1N)CC(=O)N2CCc1ccccc1
4. COc1cc2c(cc1OC)C(Sc1ccc(Cl)cc1)c1c(nc(N)c(C#N)c1N)O2 (stereo unspecified)
5. O=C(NC[C@H](O)CN1CCc2ccccc2C1)c1cc(NC2COC2)ncn1

1. 69.6
2. 88.4
3. 62.8
4. -14.8
5. 91.5

====

Tested on: SNB-19 CNS
Test protocol: NCI-60 one-dose screen, 48 h
Condition notes: 10 µM unless noted
This is part of a sample that, as a whole, favours compounds with a hit. Of some 83,000 tested, about 20% had one in any assay. Active and inactive are the calls of the source. Rule for the calls: active = growth percent below 10; inactive = the rest.
Hello, when you answer, please use one of the following outcomes: active, inactive

Before answering, review these 2 worked examples.
- Compound: "CC(C)CSc1nc(Nc2ccccc2)c(C#N)c(-c2ccc(F)cc2)n1"
  Answer label: "active"
- Compound: "COCCOCCOCc1n(Cc2ccc3ccccc3n2)c2ccccc2[n+]1Cc1ccc2ccccc2n1"
  Answer label: "inactive"

Recorded call for COc1ccc(C(=O)c2cc(OC)c(OC)c(OC)c2)cc1OC(=O)C(Cl)(Cl)Cl ?
inactive

Hey, what did the test say about N#Cc1nc(-c2ccccc2)oc1S(=O)(=O)NCC(c1ccc(Cl)cc1)N1CCCCC1 (stereo not given) ?
inactive

Assay result, entry CC(=O)Oc1ccc(O)cc1 — outcome?
inactive

====

Test system: UACC-62 melanoma
Test protocol: NCI-60 one-dose screen, 48 h (100 = growth as untreated, 0 = no growth, -100 = all killed)
Condition notes: 10 µM unless noted
This is part of a sample that, as a whole, favours compounds with a hit. Of some 83,000 tested, about 20% had one in any assay.
Could you mark each record Y if its growth falls strictly under 70%, and N if it equals or exceeds it?

- Compound: "COc1cc(/C=C/CO)cc(OC)c1O[C@@H]1O[C@H](CO)[C@@H](O)[C@H](O)[C@H]1O"
  Answer label: "N"
- Compound: "COc1ccc(/C=C/C(=O)/C=C(/C=C/c2ccc(OC)c(OC)c2)OB(F)F)cc1OC"
  Answer label: "Y"
- Compound: "N#Cc1ccc(Oc2ccc3ccc(=O)oc3c2)cc1"
  Answer label: "N"

Does O=C(CCc1nnco1)c1nc2ccc([N+](=O)[O-])cc2[nH]1 have growth strictly under 70%?
N

Confirm or reject: growth of N#CCNc1ccc(C(=O)O)cc1 lies strictly below 70%
N

====

Tested on: RPMI-8226 leukemia
Test protocol: NCI-60 one-dose screen, 48 h (100 = growth as untreated, 0 = no growth, -100 = all killed)
Condition notes: 10 µM unless noted
This is part of a sample that, as a whole, favours compounds with a hit. Of some 83,000 tested, about 20% had one in any assay.
Endpoint name: growth (%)
Answers are plain numbers, in %.

// below: answered molecules
- Molecule: "O=C(Nc1nc2ccc(C(F)(F)F)cc2s1)c1cc(Cl)ccc1O"
  Target desc: "RPMI-8226 leukemia"
  growth / %: -5.53
- Molecule: "CC(C)(C)c1nn(-c2ccccc2)c2c1COCN2Cc1ccc(Cl)cc1"
  Target desc: "RPMI-8226 leukemia"
  growth / %: 10.9
- Molecule: "Cc1c(Cl)cccc1NC(=O)c1sc2nc3c(cc2c1N)CCCCCC3"
  Target desc: "RPMI-8226 leukemia"
  growth / %: 18.4
- Molecule: "Nc1c(C(=O)Nc2ccccn2)sc2nc3c(cc12)C(=O)CCC3"
  Target desc: "RPMI-8226 leukemia"
  growth / %: 38.5
- Molecule: "O=CN1N=C(c2ccc3c(c2)OCO3)CC1c1cccc(Nc2ccnc3cc(C(F)(F)F)ccc23)c1 (stereo unspecified)"
  Target desc: "RPMI-8226 leukemia"
  growth / %: 40.2

Parameter requested: growth. Apply to each item below.
1. CCC[S@@](=O)c1ccc2nc(NC(=O)OC)[nH]c2c1
2. COc1ccc(C2CC(c3ccc(OC)cc3O)=NN2c2ccc(S(N)(=O)=O)cc2)cc1 (stereo unspecified)
3. COc1ccc(OCC(=O)OC(C)C)cc1
4. COc1ccc(-n2cc(-c3ccc(Cl)c(Cl)c3)[nH]c2=O)cc1OC

1. 95
2. -32.6
3. 106
4. 97.6

====

System: MCF7 breast
Test protocol: NCI-60 one-dose screen, 48 h
Condition notes: 10 µM unless noted
This is part of a sample that, as a whole, favours compounds with a hit. Of some 83,000 tested, about 20% had one in any assay. The source made the active and inactive calls. How the source made its calls: active means growth percent below 10; inactive means the rest.
Parameter call: string, one of active, inactive

These solved cases illustrate the format of a correct answer.
- Structure smiles string: "N#Cc1c(-c2ccc(F)cc2)nc(N=Nc2c(O)[nH]c3ccc(Cl)cc23)nc1N1CCOCC1"
  Target desc: "MCF7 breast"
  Answer label: "inactive"
- Structure smiles string: "COC(=O)c1nc(-c2ccccc2)oc1S(=O)(=O)n1nc(C)cc1N"
  Target desc: "MCF7 breast"
  Answer label: "inactive"
- Structure smiles string: "[2H]c1cc2c(c([2H])c1F)/C(=C/c1[nH]c(C)c(C(=O)NCCN(CC)CC)c1C)C(=O)N2"
  Target desc: "MCF7 breast"
  Answer label: "inactive"
- Structure smiles string: "COc1ccc(C(=O)c2cc(OC)c(C)c(OC)c2)cc1OC(=O)CCl"
  Target desc: "MCF7 breast"
  Answer label: "inactive"

Lab note: next molecule to report on.
Answer briefly: the call reported for C#C[C@@]1(O)[C@@H](CO)O[C@@H](n2cc(F)c3c(N)ncnc32)[C@@H]1O in this assay.
active

====

I'd be grateful if you could share measured growth for these entries.
Test system: NCI-H460 lung
Test protocol: NCI-60 one-dose screen, 48 h (100 = growth as untreated, 0 = no growth, -100 = all killed)
Condition notes: 10 µM unless noted
Compounds without any hit were thinned out: in the full panel of roughly 83,000, 20% have a hit.
Give bare numbers, in %.

# count of solved cases: 4
- Structure smiles string: "COc1cc2nc3c(=O)n(-c4ccc(C#N)cc4)cnn3c(=O)c2cc1OC"
  Target desc: "NCI-H460 lung"
  Endpoint name: "growth"
  Result unit: "%"
  Reported result: 104
- Structure smiles string: "CN1CCN(CC#CCOC(=O)CNC(=O)[C@]23CCC(C)(C)C[C@H]2C2=CC[C@@H]4[C@@]5(C)CC[C@H](O)C(C)(C)[C@@H]5CC[C@@]4(C)[C@]2(C)CC3)CC1"
  Target desc: "NCI-H460 lung"
  Endpoint name: "growth"
  Result unit: "%"
  Reported result: 96.4
- Structure smiles string: "COc1ccc(-c2[nH]c3ccc(OC)cc3c2C=C(C#N)C#N)cc1"
  Target desc: "NCI-H460 lung"
  Endpoint name: "growth"
  Result unit: "%"
  Reported result: 17.2
- Structure smiles string: "C/C(=N/Nc1nc2ccccc2n1C)c1ccccn1"
  Target desc: "NCI-H460 lung"
  Endpoint name: "growth"
  Result unit: "%"
  Reported result: -23.3

Would you be so kind as to report growth for each listed record?
1. Cc1cnc(-c2ccc(-c3ccc(NC(=O)Nc4c(F)cc(F)cc4F)cc3F)c3c2C(=O)NC3)[nH]1
2. C=C1C(=O)O[C@H]2[C@H]1CCC(/C=N/c1ncc(Br)cc1N)=C\CC[C@@]1(C)O[C@@H]21
3. O=c1nc(-c2ccccc2)c2cc(-c3ccc(N4CCCC4)nc3)ccc2[nH]1
4. COc1ccc(Cl)c([N+](=O)[O-])c1
5. CCOC(=O)c1c(C)nc2c(c1N)/C(=C/c1cccs1)C(=O)N2Cc1ccccc1

-29.5
58.3
57.7
108
67.1

The measurements presented in this section are drawn from PubChem BioAssay (NCI).
